Data origin, for the record: patent US12570659B2

biological target: JAK3 kinase (Homo sapiens (Human))
Sequence (P52333 whole entry): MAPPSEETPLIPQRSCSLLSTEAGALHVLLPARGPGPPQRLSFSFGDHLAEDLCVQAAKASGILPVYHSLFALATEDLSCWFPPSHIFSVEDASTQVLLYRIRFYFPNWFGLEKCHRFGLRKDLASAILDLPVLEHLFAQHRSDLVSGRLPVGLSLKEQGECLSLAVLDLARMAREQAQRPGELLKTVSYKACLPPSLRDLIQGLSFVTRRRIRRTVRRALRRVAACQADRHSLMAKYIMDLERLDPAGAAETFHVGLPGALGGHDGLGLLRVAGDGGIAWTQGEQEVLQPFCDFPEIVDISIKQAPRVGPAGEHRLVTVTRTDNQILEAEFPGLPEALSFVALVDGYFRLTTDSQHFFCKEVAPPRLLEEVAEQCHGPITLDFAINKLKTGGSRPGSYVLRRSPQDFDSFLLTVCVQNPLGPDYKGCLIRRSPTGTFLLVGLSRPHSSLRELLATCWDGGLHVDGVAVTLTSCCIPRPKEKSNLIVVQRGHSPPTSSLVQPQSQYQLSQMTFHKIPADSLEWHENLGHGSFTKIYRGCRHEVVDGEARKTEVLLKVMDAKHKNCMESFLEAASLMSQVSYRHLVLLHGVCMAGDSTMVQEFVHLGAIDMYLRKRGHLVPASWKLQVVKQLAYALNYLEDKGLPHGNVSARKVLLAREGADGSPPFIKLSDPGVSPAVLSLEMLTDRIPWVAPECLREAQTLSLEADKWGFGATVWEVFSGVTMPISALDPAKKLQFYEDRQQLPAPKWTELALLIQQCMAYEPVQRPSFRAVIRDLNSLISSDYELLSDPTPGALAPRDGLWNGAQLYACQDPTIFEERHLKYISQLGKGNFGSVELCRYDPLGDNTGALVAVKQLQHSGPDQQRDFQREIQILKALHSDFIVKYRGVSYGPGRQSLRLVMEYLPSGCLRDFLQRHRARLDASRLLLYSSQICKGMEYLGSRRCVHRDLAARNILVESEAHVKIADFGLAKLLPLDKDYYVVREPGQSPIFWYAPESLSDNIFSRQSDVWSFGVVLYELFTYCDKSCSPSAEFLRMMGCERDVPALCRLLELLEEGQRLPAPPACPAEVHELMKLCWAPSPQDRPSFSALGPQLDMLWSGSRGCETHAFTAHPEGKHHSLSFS
result type: IC50

# batch: return IC50 for each of the 7 compounds below
1. CC(C)Nc1c(C(=O)NCCC(C)(C)O)cnn2cc(-c3ccncc3)cc12
2. Cc1cc(F)ncc1-c1cc2c(NC(C)C)c(C(=O)N[C@H]3CC[C@H](C(N)=O)CC3)cnn2c1
3. CC(C)(O)[C@H](F)CNC(=O)c1cnn2cc(-c3nccs3)cc2c1NC1CCOCC1
4. COC(=O)N[C@H]1CC[C@H](NC(=O)c2cnn3cc(-c4cccnc4)cc3c2NC(C)C)CC1
5. CC(=O)N[C@H]1CC[C@H](NC(=O)c2cnn3cc(-c4c(C)ccnc4F)cc3c2NC(C)C)CC1
6. Cc1ccccc1-c1cc2ncc(C(=O)NC[C@@H](F)C(C)(C)O)c(NC(C)C)n2n1
7. CC(C)(O)[C@H](F)CNC(=O)c1cnn2cc(-c3cccnc3)cc2c1NC1CCCC1

Result:
> 50 µM
> 50 µM
> 10 µM
> 50 µM
18 µM
> 10 µM
> 10 µM

# batch: return IC50 for each of the 5 compounds below
1. CC(=O)N[C@H]1CC[C@H](NC(=O)c2cnn3cc(-c4ccncc4C)cc3c2NC(C)C)CC1
2. CC(C)(O)[C@H](F)CNC(=O)c1cnc2cc(-c3cccnc3)nn2c1N[C@H]1CCC[C@H]1O
3. CC(C)(O)[C@H](F)CNC(=O)c1cnn2cc(-c3cccnc3F)cc2c1NC1CCOCC1
4. CC(C)Nc1c(C(=O)N[C@H]2CC[C@H](c3nc[nH]n3)CC2)cnn2cc(-c3ccncc3)cc12
5. CCOC(=O)N[C@H]1CC[C@H](NC(=O)c2cnn3cc(-c4ccncc4F)cc3c2NC(C)C)CC1

Result:
1. > 50 µM
2. > 50 µM
3. > 50 µM
4. 10 µM
5. > 50 µM

----------
Target: UniProt:P52333
Experiment: JAK3 Homogeneous Time Resolved Fluorescence (HTRF) Assay
Format: binding
Details: selectivity for IRAK4 over JAK3
Procedure: JAK3 Homogeneous Time Resolved Fluorescence (HTRF) Assay A time resolved FRET-based competition binding assay was used to assess test article binding to JAK3 kinase. […] Fluorescence at 495 nm and 520 nm was measured using an EnVision microplate reader to quantify FRET between Tb-labeled detection antibody and fluorescein-labeled probe. […] Percent inhibition was determined for test compounds at 11 concentrations. […]
result type: Ratio of JAK3 IC50 to IRAK4 IC50

Solved cases (5 shown):
# chem smiles, tested target, Ratio of JAK3 IC50 to IRAK4 IC50
measured = [
    ("CC(C)Nc1c(C(=O)NC[C@@H](F)C(C)(C)O)cnn2cc(-c3ccc(C#N)cc3)cc12", "UniProt:P52333", 1667),
    ("CC(=O)N[C@H]1CC[C@H](NC(=O)c2cnn3cc(-c4ccc(CO)nc4)cc3c2NC(C)C)CC1", "UniProt:P52333", ">16129"),
    ("COc1cc(-c2cc3c(NC4CCOCC4)c(C(=O)NC[C@@H](F)C(C)(C)O)cnn3c2)ccn1", "UniProt:P52333", ">581"),
    ("CC(C)Nc1c(C(=O)NC[C@@H](F)C(C)(C)O)cnn2cc(-c3cnoc3)cc12", "UniProt:P52333", ">33"),
    ("CC(=O)N[C@H]1CC[C@H](NC(=O)c2cnn3cc(-c4ccncc4F)cc3c2NC(C)C)CC1", "UniProt:P52333", ">31250"),
]

# batch: return Ratio of JAK3 IC50 to IRAK4 IC50 for each of the 3 compounds below
1. CC(C)Nc1c(C(=O)NC[C@@H](F)C(C)(C)O)cnc2cc(-c3cccc(=O)[nH]3)nn12
2. CC(C)(O)[C@H](F)CNC(=O)c1cnn2cc(-c3cccnc3)cc2c1NC1CC1
3. Cc1cc(F)ncc1-c1cc2c(NC(C)C)c(C(=O)NC3CCN(S(C)(=O)=O)CC3)cnn2c1

Result:
1. >167
2. >4545
3. >1087
